- measurement.conditions: in n-butanol, 303.15 K
value.kind: solubility (mole fraction)
Give a plain numeric answer without units written out.

Q: Look up solubility (mole fraction) for this compound: N[C@@H](CC(=O)N1CCn2c(nnc2C(F)(F)F)C1)Cc1cc(F)c(F)cc1F
Result: 0.0243

====

- measurement.conditions: in isobutanol, 278.15 K
value.kind: solubility (mole fraction)

Q: Request the reported solubility (mole fraction) associated with N[C@@H](CC(=O)N1CCn2c(nnc2C(F)(F)F)C1)Cc1cc(F)c(F)cc1F
Result: 0.0101

====

- measurement.conditions: in methyl acetate, 303.15 K
value.kind: solubility (mole fraction)

Q: Form field: reported solubility (mole fraction) of N[C@@H](CC(=O)N1CCn2c(nnc2C(F)(F)F)C1)Cc1cc(F)c(F)cc1F
Result: 0.0835
